Target: recombinant human TRPV1 (HEK-293 cells) (Homo sapiens)
Construct: expressed in transfected cells
Sequence (Q8NER1 whole entry): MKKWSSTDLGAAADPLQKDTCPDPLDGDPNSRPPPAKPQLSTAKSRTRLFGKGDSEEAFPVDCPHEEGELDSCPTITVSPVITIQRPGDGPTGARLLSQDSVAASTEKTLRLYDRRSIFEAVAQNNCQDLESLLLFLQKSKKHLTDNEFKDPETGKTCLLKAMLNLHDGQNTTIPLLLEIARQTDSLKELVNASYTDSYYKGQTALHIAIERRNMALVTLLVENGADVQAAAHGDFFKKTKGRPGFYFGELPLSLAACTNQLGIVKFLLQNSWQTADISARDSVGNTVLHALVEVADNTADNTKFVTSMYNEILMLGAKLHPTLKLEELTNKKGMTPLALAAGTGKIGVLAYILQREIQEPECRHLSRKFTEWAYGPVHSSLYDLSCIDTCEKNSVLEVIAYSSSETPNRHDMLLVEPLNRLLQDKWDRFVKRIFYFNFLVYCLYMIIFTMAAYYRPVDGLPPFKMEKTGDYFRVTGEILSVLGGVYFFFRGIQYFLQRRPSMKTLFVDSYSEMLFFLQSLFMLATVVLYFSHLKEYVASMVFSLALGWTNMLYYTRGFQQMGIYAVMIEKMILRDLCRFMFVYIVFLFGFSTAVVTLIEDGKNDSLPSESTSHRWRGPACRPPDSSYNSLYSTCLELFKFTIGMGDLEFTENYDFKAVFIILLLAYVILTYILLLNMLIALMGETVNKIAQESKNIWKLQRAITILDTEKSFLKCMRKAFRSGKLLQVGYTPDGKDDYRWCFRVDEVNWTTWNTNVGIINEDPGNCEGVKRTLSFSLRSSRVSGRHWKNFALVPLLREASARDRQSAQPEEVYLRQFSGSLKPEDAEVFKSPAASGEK
Test: Desensitization of capsaicin (10 nM)-induced TRPV1-mediated elevation of intracellular [Ca2+]
Format: cell-based
Details: read-out: IC50, desensitization of TRPV1 to the effect of capsaicin; 10 nM capsaicin; compound given 5 min before
Result Type: IC50 (nM)

INSERT INTO results (query_smiles, target_or_test_system, reading) VALUES
  ('CCCCCCCCCCCCCCCC(=O)NCc1ccc(O)c(OC)c1', 'recombinant human TRPV1 (HEK-293 cells) (Homo sapiens)', 0.81);
